The reported numbers originate from patent US4758557A.

Test system: Serratia marcescens No. 1
Test: MIC in agar plate culture-dilution assay
Format: cell-based
Details: Serratia marcescens No. 1; agar plate culture-dilution; read-out: MIC
Text: The compounds of the formula (I) and salts thereof of the present invention are new, and have high and broad antibacterial activity capable of inhibiting the growth of pathogenic microorganisms of a broad range including gram-positive and gram-negative bacteria. In order to show the usability of the compounds of the formula (I), the antibacterial activity of some typical compounds of the formula (I) was actually measured, and the results are given in the following Table-1. […]
readout name: MIC (µg/mL)

Guide cases for MIC, answers given:
INSERT INTO measurements (compound, readout_name, numeric_result) VALUES
  ('Nc1nc(C(NC(=O)c2cc(=O)c(O)cn2O)C(=O)N[C@@H]2C(=O)N3C(C(=O)O)=C(CSc4ccncc4)CS[C@H]23)cs1 (stereo partly drawn)', 'MIC', 0.39),
  ('Nc1nc(C(NC(=O)c2cc(=O)c(O)cn2O)C(=O)N[C@@H]2C(=O)N3C(C(=O)O)=C(CSc4ccnc5c4CCC5)CS[C@H]23)cs1 (stereo partly drawn)', 'MIC', 0.39);

a: NC(=O)C[n+]1ccc(SCC2=C(C(=O)[O-])N3C(=O)[C@@H](NC(=O)C(NC(=O)c4cc(=O)c(O)cn4O)c4csc(N)n4)[C@H]3SC2)cc1 (stereo partly drawn)
b: C[n+]1ccc(SCC2=C(C(=O)[O-])N3C(=O)[C@@H](NC(=O)C(NC(=O)c4cc(=O)c(O)cn4O)c4csc(N)n4)[C@H]3SC2)c2c1CCC2 (stereo partly drawn)
// which entry has the larger MIC value, a or b ? Use the label to indicate which entry you chose.
a
(a: 0.2 µg/mL, b: 0.1 µg/mL)

A: Nc1nc(C(NC(=O)c2cc(=O)c(O)cn2O)C(=O)N[C@@H]2C(=O)N3C(C(=O)[O-])=C(CSc4cc[n+](C5CC5)cc4)CS[C@H]23)cs1 (stereo partly drawn)
B: Nc1nc(C(NC(=O)c2cc(=O)c(O)cn2O)C(=O)N[C@@H]2C(=O)N3C(C(=O)O)=C(CSc4nc5ccccc5s4)CS[C@H]23)cs1 (stereo partly drawn)
// which entry has the larger MIC value, A or B ? Use the label to indicate which entry you chose.
B
